Data origin: ChEMBL document CHEMBL3098030

Target: Eukaryotic translation initiation factor 2-alpha kinase 1 (Homo sapiens) (UniProt Q9BQI3)
Sequence (Q9BQI3 whole entry): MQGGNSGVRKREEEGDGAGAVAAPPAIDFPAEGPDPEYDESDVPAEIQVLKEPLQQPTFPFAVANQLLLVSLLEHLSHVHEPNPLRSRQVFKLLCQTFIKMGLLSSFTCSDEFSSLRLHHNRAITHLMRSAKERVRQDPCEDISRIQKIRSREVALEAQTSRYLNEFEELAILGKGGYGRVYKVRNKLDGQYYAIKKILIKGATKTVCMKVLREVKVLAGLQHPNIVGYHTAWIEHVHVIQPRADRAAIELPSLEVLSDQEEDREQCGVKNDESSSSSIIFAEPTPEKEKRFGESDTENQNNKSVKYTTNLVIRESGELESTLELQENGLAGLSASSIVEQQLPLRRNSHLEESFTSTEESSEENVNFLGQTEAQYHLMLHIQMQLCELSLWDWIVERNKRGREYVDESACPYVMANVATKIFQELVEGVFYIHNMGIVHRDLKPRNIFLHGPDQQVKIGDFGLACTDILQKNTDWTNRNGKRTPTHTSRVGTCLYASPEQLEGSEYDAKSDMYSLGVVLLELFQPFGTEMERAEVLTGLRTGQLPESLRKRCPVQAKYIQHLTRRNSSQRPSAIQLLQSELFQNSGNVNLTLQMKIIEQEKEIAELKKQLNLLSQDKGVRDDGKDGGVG
Experiment: Activation of HRI in human CRL-2813-pBISA-DL(ATF-4) reporter cells assessed as concentration required to obtain F-luciferase expression/R-luciferase expression ratio 3
Measured Activity by item
All answers are understood in µM, so give the number only.

Take a look at these entries with their results.
compound	Activity, µM
O=C(Nc1ccccc1Cl)N[C@H]1CC[C@H](Oc2ccc(F)cc2)CC1	18.5
O=C(Nc1cccc(C(F)(F)F)c1)N[C@H]1CC[C@H](Oc2ccc(Cl)cc2)CC1	1.6
COC(=O)c1cccc(NC(=O)N[C@H]2CC[C@H](Oc3ccc(F)cc3)CC2)c1	17.1
O=C(Nc1ccc(I)cc1)N[C@H]1CC[C@H](Oc2ccc(F)cc2)CC1	6.3
O=C(Nc1cccc(C(F)(F)F)c1)N[C@H]1CCC[C@H](Oc2ccc(C(F)(F)F)cc2)C1 (relative stereo)	2.7
O=C(Nc1cccc(Cl)c1)N[C@H]1CC[C@H](Oc2ccc(F)cc2)CC1	6.4
O=C(Nc1cccc([N+](=O)[O-])c1)N[C@H]1CC[C@H](Oc2ccc(F)cc2)CC1	11.4
CSc1cccc(NC(=O)N[C@H]2CC[C@H](Oc3ccc(F)cc3)CC2)c1	12.2

Need Activity, item O=C(Nc1cccc(C(F)(F)F)c1)N[C@H]1CCCC[C@@H]1Oc1ccc(C(F)(F)F)cc1 (relative stereo)
1.7

Let us now turn to O=C(Nc1cccc(C(F)(F)F)c1)N[C@H]1CC[C@H](OCc2ccc(F)cc2)CC1
4.4

Let us now turn to O=C(Nc1cccc(I)c1)N[C@H]1CC[C@H](Oc2ccc(F)cc2)CC1
5.6

====

Target: Eukaryotic translation initiation factor 2-alpha kinase 1 (Homo sapiens)
Experiment: Activation of HRI in human CRL-2813-pBISA-DL(ATF-4) reporter cells assessed as reduction of ternary complex at 30 uM by dual-luciferase reporter gene assay relative to control
// returns NO unless Ratio is strictly below 5, in which case YES

Study these solved cases before continuing.
molecule	class_assignment
O=C(Nc1cccc(C(F)(F)F)c1)N[C@H]1CCC[C@H](Oc2ccc(C(F)(F)F)cc2)C1 (relative stereo)	YES
O=C(Nc1cccc(C(F)(F)F)c1)N[C@H]1CC[C@H](Oc2cccc(F)c2)CC1	NO
O=C(Nc1ccc(C(=O)O)cc1)N[C@H]1CC[C@H](Oc2ccc(F)cc2)CC1	YES
O=C(Nc1ccccc1Br)N[C@H]1CC[C@H](Oc2ccc(F)cc2)CC1	NO
COC(=O)c1ccc(NC(=O)N[C@H]2CC[C@H](Oc3ccc(F)cc3)CC2)cc1	YES

# TODO verify Ratio < 5 strictly for this molecule: O=C(Nc1cccc(C(F)(F)F)c1)N[C@H]1CC[C@H](Oc2cccc(C(F)(F)F)c2)CC1
NO

Let us now turn to O=C(Nc1cccc(C(F)(F)F)c1)N[C@H]1CCCC[C@@H]1Oc1ccc(C(F)(F)F)cc1 (relative stereo)
NO

Let us now turn to O=C(Nc1cccc(C(F)(F)F)c1)N[C@H]1CC[C@H](Oc2ccc(C(F)(F)F)cc2)CC1
NO

Let us now turn to O=C(Nc1ccccc1F)N[C@H]1CC[C@H](Oc2ccc(F)cc2)CC1
YES

====

Molecular target: UniProt Q9BQI3
Experiment: Activation of HRI in human CRL-2813-pBISA-DL(ATF-4) reporter cells assessed as eIF2alpha phosphorylation after 8 to 32 hrs by dual-luciferase reporter gene assay
Active and inactive are the calls of the source. No cut-off for these calls is given here.

compound	Activity
O=C(Nc1cccc(C(F)(F)F)c1)N[C@H]1CC[C@H](Oc2cccc(F)c2)CC1	Active
O=C(Nc1cccc(C(F)(F)F)c1)N[C@H]1CC[C@H](Oc2ccccc2F)CC1	Active
O=C(Nc1cccc(C(F)(F)F)c1)N[C@H]1CC[C@H](OCc2ccc(F)cc2)CC1	Active
O=C(Nc1cccc(C(F)(F)F)c1)N[C@H]1CCCC[C@@H]1Oc1ccc(C(F)(F)F)cc1 (relative stereo)	Active
